Measured GI50 by item
# Test system: NCI/ADR-RES
# protocol_details: NCI tumour cell line growth inhibition, 48 h
Calls of active or inactive are those of the source. Cut-off read from the data, not from the text of the source: active = GI50 up to about 1.1 µM and inactive = higher.

compound	GI50
CC(=O)N(CN1C(=O)CCC1C(=O)O)c1ccccc1 (centres undefined)	29.9 µM (inactive)
O=C1C[C@@H](Sc2ccccc2)C2(OCCO2)C2ON3CCCC[C@H]3[C@H]12 (some centres undefined)	5.78 µM (inactive)
C/C=C/C=C/C1=NN(c2cccc(S(=O)(=O)O)c2)C2(C1)C(Cl)C(=O)N2c1nc2ccccc2s1 (centres undefined)	27.2 µM (inactive)
O=P1(NCCCl)OCCCN1CCCl (centres undefined) [IFOSFAMIDE]	410 µM (inactive)

###

# Test system: UO-31
# protocol_details: NCI tumour cell line growth inhibition, 48 h
The source made the active and inactive calls. No stated cut-off is given here; in the data, active = GI50 up to about 1.1 µM and inactive = higher.
Outcome codes: YES for active, NO for inactive

molecule	test_system	assigned_label
COc1ccc2nc3cc(Cl)ccc3c(NCCCN3CCN(CCCNc4ccc5nnn6c7ccccc7c(=O)c4c56)CC3)c2c1	UO-31	NO
COc1ccc(CC2C(=O)NC(C)C(=O)N(C)C3Cc4ccc(cc4)Oc4cc(ccc4O)CC(C(=O)NC(C)C(=O)NC(C)C(=O)N2C)N(C)C3=O)cc1 (stereo unspecified)	UO-31	YES
COC(=O)c1c(C)[n+]([O-])c2cc(Cl)c(Cl)cc2[n+]1[O-]	UO-31	NO
NS(=O)(=O)c1ccc(/N=N/c2ncccc2O)cc1	UO-31	NO
CC1(C)CCc2cc3c(-c4ccccc4)cc(=O)oc3cc2O1	UO-31	NO
Cc1ncc([N+](=O)[O-])n1CCNC(=O)Cn1ccnc1[N+](=O)[O-]	UO-31	NO

###

# Tested on: A549
# protocol_details: NCI tumour cell line growth inhibition, 48 h
Activity calls are given as the source filed them. No stated cut-off is given here; in the data, active = GI50 up to about 1.1 µM and inactive = higher.
Outcome codes: 1 = active, -1 = inactive

molecule	assigned_label
COc1ccc(/C=C/C(=O)C(C)(C)CN2CCCCC2)cc1	-1
CN1NC(c2ccccc2)=C(C#N)C(=O)CC1c1ccc(F)cc1 (centres undefined)	-1
CC(=O)CC(O)(C(F)(F)Cl)C(F)(Cl)Cl (centres undefined)	-1
c1ccc2c(c1)nnn2CN1CCOCC1	-1
CCOC(=O)CCC(NC(=O)Cc1ccc(Nc2nc3ccccc3nc2-c2cccs2)cc1)C(=O)OCC (centres undefined)	-1
CN(C)CCNC(=O)c1cccc2nc3c(Cl)cccc3nc12	-1
COc1ccc(C2S/C(=C\c3cccc([N+](=O)[O-])c3)C(=O)N2NC(=O)Cc2ccccc2)cc1 (centres undefined)	-1
CCOC(=O)CN1C(=O)c2c(c(C)n(-c3ccccc3)c2C)C1=O	-1
CN(C)CC1(C)CC/C(=C\c2ccc3c(c2)OCO3)C1=O (centres undefined)	-1
CN1CCN(CCCN2c3ccccc3Sc3ccc(C(F)(F)F)cc32)CC1	-1
CC1CC[C@@]2(OC1)OC1C[C@H]3[C@@H]4CC=C5CC(OC6OC(CO)C(OC7OC(CO)C(O)C(OC8OCC(O)C(O)C8O)C7OC7OC(CO)C(O)C(O)C7O)C(O)C6O)CCC5(C)[C@H]4CCC3(C)C1[C@@H]2C (some centres undefined)	-1
CCCCCCCCCCCCC/C=C1\C[C@H](O)COC1=O	-1
NC(=O)c1nnsc1N/N=C/c1ccc([N+](=O)[O-])cc1	-1
COC(=O)C1C2OC(C)(C)OC2CN1S(=O)(=O)c1ccc(C)cc1 (centres undefined)	-1
CC1(C)CC(=O)C2=C(C1)NC(=S)C(C#N)C2c1ccccc1 (centres undefined)	-1
CC(C)(C)OC(=O)NC(CCCCNC(=O)OCc1ccccc1)C(=O)NCCNc1ccc(NCCNC(=O)C(CCCCNC(=O)OCc2ccccc2)NC(=O)OC(C)(C)C)c2c1C(=O)c1ccccc1C2=O (centres undefined)	-1
O=P1(NCCCl)OCCCN1CCCl (centres undefined) [IFOSFAMIDE]	-1
Cc1ccc(C)c(NC(=O)C(=O)CC(=O)c2cccc3ccccc23)c1	-1
O=C(/C=C\c1cccc2ccccc12)c1ccc(Cl)cc1Cl	-1
CC1=NN2C(c3ccc(C)cc3)=CSC2=NC(C)(C)C1	-1
COc1cc(/C=C2/C(=O)N(C(=O)OCC(C)C)C(Cc3cc(OC)c(OC)c(C)c3OC)C(=O)N2Cc2ccccc2)c(OC)c(C)c1OC (centres undefined)	-1
N[C@@H]1c2c(Br)sc(Br)c2C(=O)[C@H]1Br	-1
COc1ccc2c3c1O[C@H](c1ccc(O)cc1)[C@H]3[N+](C)(C)CC2	-1
C1CCOC2(CCC3(CC2)OCCCCO3)OC1	-1
CC(C)(C)OC(=O)NCC(=O)N1CCN(C(=O)CNC(=O)OC(C)(C)C)CC1	-1
CC(=O)NNc1nc(C)c(C(=O)NNC(=O)C(=O)Nc2ccc(Cl)c([N+](=O)[O-])c2)s1	-1
O=C(/C=C/c1ccc(Br)cc1)c1ccc(NCc2nc3ccccc3[nH]2)cc1	-1
CCCCc1ccc(Nc2nc3c(ncn3COCCBr)c(=O)[nH]2)cc1	-1
COc1ccc2c(c1)c1nn(CCN(C)C)c3ccc4c(=O)n(CCN(C)C)c(=O)n2c4c13	1
Nc1ccccc1C(=O)NNC(=O)c1ccccc1N	-1
CC(=O)OC1COC(n2c(=S)n(-c3ccc(C)cc3)c(=O)c3ccccc32)C(OC(C)=O)C1OC(C)=O (centres undefined)	-1
O=[N+]([O-])c1nccn1CC(O)c1ccccc1 (centres undefined)	-1
N#CCCC1C(C#N)C2(Cl)CC1(Cl)C(Cl)=C2Cl (centres undefined)	-1
O=c1nc2sc3ccc4ccccc4c3n2nc1-c1ccccc1	-1

###

Measured GI50 by item
# System: SK-MEL-28
# protocol_details: NCI tumour cell line growth inhibition, 48 h
Activity calls are given as the source filed them. Rule as the data show it: active = GI50 up to about 1.1 µM and inactive = higher. Peptide text beside a SMILES is read from it. * marks the point of attachment. Boc = CC(C)(C)OC(=O)*
readout_label: GI50

compound	recorded_result
COc1ccc(C(=O)OC2C=COC(C)C2OC(=O)c2ccc(OC)cc2)cc1 (stereo not drawn)	16.4 µM (inactive)
O=c1n(CC2CO2)c2ccccc2n1CC1CS1 (stereo not drawn)	> 100 µM (inactive)
COc1ccc2nc3cc(Cl)ccc3c(NCCCN3CCN(CCCNc4ccc5nnn6c7ccccc7c(=O)c4c56)CC3)c2c1	> 25 µM (inactive)
CC1ON2CCCC2[C@H]1C(=O)N1C2CC3CCC2(CS1(=O)=O)C3(C)C (stereo partly drawn)	> 100 µM (inactive)
NC1CCC2(O)c3ccccc3C2C1 (stereo not drawn)	> 100 µM (inactive)
Cc1ccc(C)c(NC(=O)C(=O)CC(=O)c2cccc3ccccc23)c1	> 100 µM (inactive)
COc1c(C=O)c2c(c(OC)c1OC)-c1ccc(OC)c(=O)cc1[C@@H](NC(C)=O)CC2	4.08 µM (inactive)
C#CCN(Cc1ccc2[nH]c(N)nc(=O)c2c1)c1ccc(C(=O)NC(CCC(=O)O)C(=O)O)cc1 (stereo not drawn)	> 100 µM (inactive)
O=C1C[C@H]2[C@@H](O1)[C@@H](O)CN1C(=O)c3ccccc3[C@H]21	> 100 µM (inactive)
Nc1ccc(C(=O)N/C(=C\c2ccc3c(c2)OCO3)c2nc3ccc4c(c3[nH]2)C(=O)c2ccccc2C4=O)cc1	33.1 µM (inactive)
COC(=O)C(Cc1c[nH]c2ccccc12)NC(=O)C(Cc1c[nH]c2ccccc12)NC(=O)C(Cc1c[nH]c2ccccc12)NC(=O)C(Cc1c[nH]c2ccccc12)NC(=O)C(Cc1c[nH]c2ccccc12)NC(=O)OC(C)(C)C (stereo not drawn) (Boc-WWWWW-OMe; configuration not given here)	55.7 µM (inactive)
Nc1ccccc1C(=O)NNC(=O)c1ccccc1N	> 100 µM (inactive)
CN(C)CC1(C)CC/C(=C\c2ccc3c(c2)OCO3)C1=O (stereo not drawn)	> 100 µM (inactive)
O=C(CC(=O)c1cccc2ccccc12)C(=O)Nc1nccs1	> 100 µM (inactive)
C[C@@H]1CC(=O)C2CCCC1C2=O (stereo partly drawn)	> 100 µM (inactive)
CCCCCC(=O)Nc1[nH]nnc1C#N	> 100 µM (inactive)
CCOC(=O)/C=C1\CCCC12OCCO2	> 100 µM (inactive)
COC(=O)NC(Cc1ccccc1)NC(=O)OC(C)(C)C (stereo not drawn)	> 100 µM (inactive)

###

# Tested on: EKVX
# protocol_details: NCI tumour cell line growth inhibition, 48 h
Active and inactive are the calls of the source. Rule as the data show it: active = GI50 up to about 1.1 µM and inactive = higher.
readout_label: GI50

compound	readout_label	recorded_result
CC1=CCCC2C1(C)CCC(C)C2(C)Cc1cc(O)ccc1O (stereo not given)	GI50	6.27 µM (inactive)
COC(=O)c1c(C)[n+]([O-])c2cc(Cl)c(Cl)cc2[n+]1[O-]	GI50	19.5 µM (inactive)
O=C(Nc1ccccc1)c1ccc(Cl)c([N+](=O)[O-])c1	GI50	28.4 µM (inactive)
CC(CN(C)C)C(O)(c1ccccc1)c1ccccc1 (stereo not given)	GI50	> 100 µM (inactive)
O=C(O)CC/C(=N\Nc1nsc2ccccc12)c1ccc(Cl)cc1	GI50	69.5 µM (inactive)
